Biological target: Lysine-specific demethylase 5B (Homo sapiens, UniProt Q9UGL1)
Sequence (Q9UGL1 whole entry, the tested form may be a part): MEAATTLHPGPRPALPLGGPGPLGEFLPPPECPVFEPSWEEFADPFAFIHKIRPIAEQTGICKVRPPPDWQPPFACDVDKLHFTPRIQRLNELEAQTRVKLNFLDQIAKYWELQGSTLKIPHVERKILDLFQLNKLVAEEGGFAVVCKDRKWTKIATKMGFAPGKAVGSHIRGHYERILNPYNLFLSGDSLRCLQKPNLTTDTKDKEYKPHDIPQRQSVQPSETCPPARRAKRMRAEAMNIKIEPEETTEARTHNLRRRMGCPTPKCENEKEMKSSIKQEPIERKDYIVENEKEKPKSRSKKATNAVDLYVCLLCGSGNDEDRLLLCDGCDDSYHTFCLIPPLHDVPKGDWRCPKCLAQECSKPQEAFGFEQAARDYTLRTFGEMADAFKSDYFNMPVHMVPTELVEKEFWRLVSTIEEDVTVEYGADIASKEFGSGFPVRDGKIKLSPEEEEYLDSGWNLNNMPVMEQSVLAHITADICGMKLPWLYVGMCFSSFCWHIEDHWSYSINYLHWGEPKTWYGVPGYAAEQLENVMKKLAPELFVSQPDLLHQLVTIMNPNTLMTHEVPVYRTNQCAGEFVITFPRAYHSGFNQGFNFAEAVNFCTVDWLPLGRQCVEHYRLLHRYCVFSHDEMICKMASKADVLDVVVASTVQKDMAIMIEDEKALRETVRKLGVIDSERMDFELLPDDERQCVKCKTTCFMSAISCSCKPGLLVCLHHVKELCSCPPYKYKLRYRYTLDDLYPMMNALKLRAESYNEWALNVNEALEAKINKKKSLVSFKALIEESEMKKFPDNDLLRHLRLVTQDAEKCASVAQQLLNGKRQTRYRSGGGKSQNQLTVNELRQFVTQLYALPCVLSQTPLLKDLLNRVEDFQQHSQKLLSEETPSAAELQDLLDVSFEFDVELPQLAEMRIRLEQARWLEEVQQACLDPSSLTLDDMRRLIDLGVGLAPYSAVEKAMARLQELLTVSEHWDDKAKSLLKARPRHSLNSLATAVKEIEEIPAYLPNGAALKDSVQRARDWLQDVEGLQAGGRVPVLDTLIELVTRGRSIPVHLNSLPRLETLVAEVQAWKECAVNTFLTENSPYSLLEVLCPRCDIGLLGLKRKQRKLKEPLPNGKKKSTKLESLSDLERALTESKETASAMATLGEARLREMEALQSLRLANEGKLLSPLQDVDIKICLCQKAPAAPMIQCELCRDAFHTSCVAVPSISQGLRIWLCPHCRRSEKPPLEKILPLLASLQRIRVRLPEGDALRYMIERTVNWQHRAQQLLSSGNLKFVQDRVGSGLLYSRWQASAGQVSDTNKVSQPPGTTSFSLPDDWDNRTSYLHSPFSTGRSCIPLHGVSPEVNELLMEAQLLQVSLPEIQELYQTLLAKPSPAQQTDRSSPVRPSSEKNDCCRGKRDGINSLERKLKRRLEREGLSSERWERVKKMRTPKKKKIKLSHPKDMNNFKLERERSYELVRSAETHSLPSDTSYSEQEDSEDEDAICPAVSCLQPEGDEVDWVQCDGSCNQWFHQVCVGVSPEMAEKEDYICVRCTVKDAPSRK
Assay: biochemical

| Structure | IC50 |
| --- | --- |
| COc1ccc(-c2c(-c3cc(C(=O)O)ccn3)ncn2C)cc1 | 100 nM |
| O=C(O)c1ccncc1Nc1nn(C2CCCC2)c2ccc(F)cc12 | < 100 nM |
| Cn1cnc(-c2cc(C(=O)O)ccn2)c1-c1ccc(OCC2CC2)cc1 | < 100 nM |
| COc1cc(COc2cc3nccc(C(=O)O)c3[nH]2)ccc1Cl | 1000 nM |
| Cn1cnc(-c2cc(-c3nn[nH]n3)ccn2)c1 | 100 nM |
| O=C(O)c1ccnc2cc(OCc3ccc(Cl)c(OC(F)(F)F)c3)[nH]c12 | < 100 nM |
| O=C(O)c1ccnc(-n2ncc(CCO)c2OCc2ccc(F)cc2)c1 | < 100 nM |
| Cc1cc(Cl)ccc1COc1ccnn1-c1cc(C(=O)O)ccn1 | < 100 nM |
| O=C(O)c1ccncc1NCC12CC3CC(CC(C3)C1)C2 | 100 nM |
| Cn1nc(Nc2cnccc2C(=O)O)c2cccnc21 | < 100 nM |
| CC(C)Cn1nc(Nc2cnccc2C(=O)NC#N)c2cc(F)ccc21 | < 100 nM |
| O=C(O)c1ccnc2cc(OCc3ccc(Cl)c(OCC4CC4)c3)[nH]c12 | < 100 nM |
| O=C(O)c1ccnc(-n2nccc2OCc2ccc(Cl)cc2)c1 | < 100 nM |
| Cn1cnc(-c2cc(C(=O)O)ccn2)c1 | < 100 nM |

###

Assay: Antiproliferative activity against human NALM6 cells assessed as reduction in cell viability after 120 hrs by ATPlite assay
Assay type: functional, cell-based
Conditions: NALM-6, 120 h
pEC50: −log10 of the molar value.

| Structure | pEC50 |
| --- | --- |
| CCN(CC)CCCCNCc1cc(C=O)ccn1 | > 6.60 |

###

Biological target: Lysine-specific demethylase 4E (Homo sapiens, UniProt B2RXH2)
Sequence (B2RXH2 whole entry): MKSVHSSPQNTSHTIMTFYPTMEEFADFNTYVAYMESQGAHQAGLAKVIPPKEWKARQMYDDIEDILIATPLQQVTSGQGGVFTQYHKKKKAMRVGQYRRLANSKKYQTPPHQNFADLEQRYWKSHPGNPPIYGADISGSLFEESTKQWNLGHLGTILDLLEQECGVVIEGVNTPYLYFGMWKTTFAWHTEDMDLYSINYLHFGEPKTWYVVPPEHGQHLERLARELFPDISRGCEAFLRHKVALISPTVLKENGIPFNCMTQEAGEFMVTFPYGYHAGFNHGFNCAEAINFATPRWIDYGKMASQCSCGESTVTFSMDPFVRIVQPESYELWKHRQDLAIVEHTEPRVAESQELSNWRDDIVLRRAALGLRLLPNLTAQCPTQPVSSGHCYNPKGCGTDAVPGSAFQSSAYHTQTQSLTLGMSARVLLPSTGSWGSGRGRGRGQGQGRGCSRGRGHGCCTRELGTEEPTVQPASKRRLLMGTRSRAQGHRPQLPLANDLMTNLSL
Test: Inhibition of KDM4E (unknown origin) preincubated for 15 mins followed by histone substrate addition measured after 1 hr by alphascreen assay
Quantity: IC50

| Molecule | Data value |
| --- | --- |
| Cc1ccsc1C(NC(=O)c1ccccc1)c1cc(Cl)c2cccnc2c1O (racemic) | 5 µM |

###

Biological target: Lysine-specific demethylase 4A (Homo sapiens)
pKi: −log10 of the molar value.

| Structure | pKi |
| --- | --- |
| NNC(=O)Cc1nnn[nH]1 | 5.71 |

###

Molecular target: UniProt P29375
Sequence (P29375 whole entry): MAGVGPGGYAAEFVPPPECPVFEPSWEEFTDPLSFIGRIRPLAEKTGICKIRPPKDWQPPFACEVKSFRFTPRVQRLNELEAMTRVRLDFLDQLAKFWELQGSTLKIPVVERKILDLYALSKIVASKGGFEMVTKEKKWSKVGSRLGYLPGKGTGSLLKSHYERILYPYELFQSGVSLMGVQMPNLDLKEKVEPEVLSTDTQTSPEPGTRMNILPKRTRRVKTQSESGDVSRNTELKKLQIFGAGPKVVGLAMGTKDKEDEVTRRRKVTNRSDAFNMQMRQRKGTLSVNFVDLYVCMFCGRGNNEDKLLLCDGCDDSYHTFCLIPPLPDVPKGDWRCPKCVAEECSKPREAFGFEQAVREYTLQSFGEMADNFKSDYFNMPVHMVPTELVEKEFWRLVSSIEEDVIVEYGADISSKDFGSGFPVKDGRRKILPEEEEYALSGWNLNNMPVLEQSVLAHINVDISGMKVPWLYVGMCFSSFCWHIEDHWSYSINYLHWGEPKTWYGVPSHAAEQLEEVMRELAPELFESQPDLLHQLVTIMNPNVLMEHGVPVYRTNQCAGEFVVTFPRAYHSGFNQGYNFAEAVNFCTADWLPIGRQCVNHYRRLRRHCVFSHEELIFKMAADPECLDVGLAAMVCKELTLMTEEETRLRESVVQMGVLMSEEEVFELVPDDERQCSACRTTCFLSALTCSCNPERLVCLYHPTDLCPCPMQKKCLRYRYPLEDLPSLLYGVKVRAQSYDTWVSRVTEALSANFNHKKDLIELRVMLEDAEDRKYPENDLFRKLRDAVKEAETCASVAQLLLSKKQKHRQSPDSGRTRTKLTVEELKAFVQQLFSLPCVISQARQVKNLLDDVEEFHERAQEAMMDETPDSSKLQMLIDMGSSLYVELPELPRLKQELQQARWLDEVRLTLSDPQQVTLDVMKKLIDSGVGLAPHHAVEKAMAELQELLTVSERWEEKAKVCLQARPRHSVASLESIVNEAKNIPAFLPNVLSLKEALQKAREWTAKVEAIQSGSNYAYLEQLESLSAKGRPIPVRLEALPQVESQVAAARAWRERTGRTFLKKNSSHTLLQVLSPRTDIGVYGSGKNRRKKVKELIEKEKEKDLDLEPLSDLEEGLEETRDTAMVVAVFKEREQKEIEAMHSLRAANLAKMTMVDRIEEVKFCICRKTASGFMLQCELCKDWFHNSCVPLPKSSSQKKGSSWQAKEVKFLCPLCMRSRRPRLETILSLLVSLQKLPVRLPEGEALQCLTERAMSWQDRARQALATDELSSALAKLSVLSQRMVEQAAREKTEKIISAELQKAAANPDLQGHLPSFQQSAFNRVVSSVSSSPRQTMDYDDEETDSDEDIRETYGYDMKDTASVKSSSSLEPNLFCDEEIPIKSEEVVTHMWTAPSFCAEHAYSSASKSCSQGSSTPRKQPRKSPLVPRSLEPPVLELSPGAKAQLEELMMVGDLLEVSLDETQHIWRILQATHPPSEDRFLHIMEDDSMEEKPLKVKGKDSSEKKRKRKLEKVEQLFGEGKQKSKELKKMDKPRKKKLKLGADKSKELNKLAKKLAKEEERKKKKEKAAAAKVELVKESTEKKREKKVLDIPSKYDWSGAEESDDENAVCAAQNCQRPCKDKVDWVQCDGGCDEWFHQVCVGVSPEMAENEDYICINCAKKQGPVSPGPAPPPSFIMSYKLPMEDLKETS
pEC50: −log10 of the molar value.
Item-by-item account of pEC50

| Structure | pEC50 |
| --- | --- |
| CC(C)Cn1cc(-c2[nH]c3c(C#N)cnn3c(=O)c2C(C)C)cn1 | 6.28 |
| CC(C)c1c(-c2cnn(C(C)(C)C)c2)[nH]c2c(C#N)cnn2c1=O | 6.74 |

###

Molecular target: Lysine-specific demethylase 3A (Homo sapiens)
Sequence (Q9Y4C1 whole entry): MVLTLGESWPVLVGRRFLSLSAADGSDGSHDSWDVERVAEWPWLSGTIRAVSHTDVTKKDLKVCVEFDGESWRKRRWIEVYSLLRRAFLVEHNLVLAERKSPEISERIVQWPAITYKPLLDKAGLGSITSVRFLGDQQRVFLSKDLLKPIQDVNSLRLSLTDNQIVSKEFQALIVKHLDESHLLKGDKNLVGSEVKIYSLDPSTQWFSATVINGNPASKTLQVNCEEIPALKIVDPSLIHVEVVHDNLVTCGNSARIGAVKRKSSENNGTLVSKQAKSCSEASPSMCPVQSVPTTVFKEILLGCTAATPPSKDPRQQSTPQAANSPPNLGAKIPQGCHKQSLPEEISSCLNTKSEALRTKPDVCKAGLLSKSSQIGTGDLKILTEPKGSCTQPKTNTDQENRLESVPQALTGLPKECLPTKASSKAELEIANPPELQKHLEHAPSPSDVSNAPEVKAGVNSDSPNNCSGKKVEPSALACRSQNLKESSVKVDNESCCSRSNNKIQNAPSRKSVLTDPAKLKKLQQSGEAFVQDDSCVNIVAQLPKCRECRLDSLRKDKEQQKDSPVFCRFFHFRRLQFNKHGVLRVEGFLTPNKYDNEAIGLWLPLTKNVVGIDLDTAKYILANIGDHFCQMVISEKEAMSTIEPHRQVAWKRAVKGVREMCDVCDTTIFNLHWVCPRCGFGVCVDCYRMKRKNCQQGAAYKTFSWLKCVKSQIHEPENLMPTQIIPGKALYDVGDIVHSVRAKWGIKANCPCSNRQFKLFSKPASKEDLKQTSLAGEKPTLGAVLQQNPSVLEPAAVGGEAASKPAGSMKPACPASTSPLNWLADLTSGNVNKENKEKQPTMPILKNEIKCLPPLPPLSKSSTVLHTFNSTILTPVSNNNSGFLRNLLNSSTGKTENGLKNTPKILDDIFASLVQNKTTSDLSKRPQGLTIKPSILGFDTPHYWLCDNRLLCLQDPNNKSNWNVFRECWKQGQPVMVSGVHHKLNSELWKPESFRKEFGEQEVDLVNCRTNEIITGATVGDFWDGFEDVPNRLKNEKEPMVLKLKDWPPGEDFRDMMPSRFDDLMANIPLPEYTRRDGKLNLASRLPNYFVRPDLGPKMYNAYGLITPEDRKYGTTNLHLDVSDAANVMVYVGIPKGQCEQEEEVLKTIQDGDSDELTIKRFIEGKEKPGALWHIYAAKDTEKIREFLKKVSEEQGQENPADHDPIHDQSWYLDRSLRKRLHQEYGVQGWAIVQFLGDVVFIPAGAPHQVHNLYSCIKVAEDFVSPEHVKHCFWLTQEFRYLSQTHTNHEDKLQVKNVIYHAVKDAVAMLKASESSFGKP
Assay: Inhibition of KDM3A (unknown origin) preincubated for 15 mins followed by histone substrate addition measured after 1 hr by alphascreen assay
pIC50: −log10 of the molar value.

| Compound | pIC50 |
| --- | --- |
| Cc1ccsc1C(NC(=O)c1ccccc1)c1cc(Cl)c2cccnc2c1O (racemic) | 3.72 |

###

Target: Lysine-specific demethylase 5B (Homo sapiens, UniProt Q9UGL1)
Experiment: Inhibition of recombinant full length FLAG-tagged KDM5B (unknown origin) expressed in sf9 cells using biotin-H3K4me3 (1 to 21 residues as substrate preincubated for 10 mins followed by substrate addition measured after 30 mins by mass spetcrometric analysis
pIC50: −log10 of the molar value.

| Structure | Measured target | Sign | pIC50 |
| --- | --- | --- | --- |
| N#Cc1cnn2c(=O)c3c([nH]c12)CCCC3 | Lysine-specific demethylase 5B (Homo sapiens, UniProt Q9UGL1) | = | 6.00 |
| CCc1c(C)nc2c(C#N)cnn2c1OC | Lysine-specific demethylase 5B (Homo sapiens, UniProt Q9UGL1) | > | 6.00 |

###

Target: UniProt:P29375
Experiment: biochemical

| Structure | Measured target | IC50 |
| --- | --- | --- |
| Cn1cnc(-c2cc(C(=O)O)ccn2)c1 | UniProt:P29375 | < 100 nM |
| O=C(O)c1ccnc(-n2nccc2OCc2ccc(Cl)cc2)c1 | UniProt:P29375 | < 100 nM |
| Cn1cnc(-c2cc(-c3nn[nH]n3)ccn2)c1 | UniProt:P29375 | 100 nM |
| Cc1cc(Cl)ccc1COc1ccnn1-c1cc(C(=O)O)ccn1 | UniProt:P29375 | < 100 nM |
| O=C(O)c1ccncc1Nc1nn(C2CCCC2)c2ccc(F)cc12 | UniProt:P29375 | < 100 nM |
| CC(C)Cn1nc(Nc2cnccc2C(=O)NC#N)c2cc(F)ccc21 | UniProt:P29375 | < 100 nM |
| Cn1cnc(-c2cc(C(=O)O)ccn2)c1-c1ccc(OCC2CC2)cc1 | UniProt:P29375 | < 100 nM |
| O=C(O)c1ccnc2cc(OCc3ccc(Cl)c(OCC4CC4)c3)[nH]c12 | UniProt:P29375 | 100 nM |

###

Biological target: Lysine-specific demethylase 4A (Homo sapiens, UniProt O75164)
Sequence (O75164 whole entry): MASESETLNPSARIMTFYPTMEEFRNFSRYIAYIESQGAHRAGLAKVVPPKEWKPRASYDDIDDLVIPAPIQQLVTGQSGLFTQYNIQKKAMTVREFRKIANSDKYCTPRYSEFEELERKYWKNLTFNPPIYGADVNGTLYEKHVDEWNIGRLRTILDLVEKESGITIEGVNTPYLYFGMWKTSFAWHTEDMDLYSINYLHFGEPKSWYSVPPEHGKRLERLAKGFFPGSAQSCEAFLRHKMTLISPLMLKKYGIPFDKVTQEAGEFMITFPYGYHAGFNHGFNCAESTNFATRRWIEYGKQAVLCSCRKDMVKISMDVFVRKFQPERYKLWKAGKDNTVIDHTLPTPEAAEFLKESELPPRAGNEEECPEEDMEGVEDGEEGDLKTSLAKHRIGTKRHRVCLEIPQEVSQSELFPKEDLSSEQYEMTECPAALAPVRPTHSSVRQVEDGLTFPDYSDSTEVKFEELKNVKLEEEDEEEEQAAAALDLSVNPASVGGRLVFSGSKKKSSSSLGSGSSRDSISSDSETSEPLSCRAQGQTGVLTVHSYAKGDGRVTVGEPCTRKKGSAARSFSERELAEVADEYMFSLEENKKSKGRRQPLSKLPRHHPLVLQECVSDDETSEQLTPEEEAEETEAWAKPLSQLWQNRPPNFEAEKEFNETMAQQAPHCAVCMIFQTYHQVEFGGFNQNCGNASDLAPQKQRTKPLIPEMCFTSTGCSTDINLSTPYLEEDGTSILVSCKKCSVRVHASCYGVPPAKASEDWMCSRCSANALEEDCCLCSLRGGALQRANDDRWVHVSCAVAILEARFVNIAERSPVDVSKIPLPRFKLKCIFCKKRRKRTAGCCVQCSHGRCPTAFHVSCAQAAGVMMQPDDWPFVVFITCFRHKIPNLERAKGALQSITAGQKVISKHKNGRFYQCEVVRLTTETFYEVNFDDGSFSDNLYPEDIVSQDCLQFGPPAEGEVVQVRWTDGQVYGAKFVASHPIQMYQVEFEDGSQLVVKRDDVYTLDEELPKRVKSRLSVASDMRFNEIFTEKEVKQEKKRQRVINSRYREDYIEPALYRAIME
Assay: Inhibition of recombinant GST-tagged KDM4A double tudor domain (895 to 1011 residues) (unknown origin) using biotin-H3K4me3 ( 1 to 14 residues) peptide substrate by fluorescence polarization assay
Item-by-item account of IC50

| Structure | Scale unit | IC50 |
| --- | --- | --- |
| CCCCc1oc2ccccc2c1C(=O)c1cc(I)c(OCCC[N+](C)(C)C)c(I)c1 | µM | 34 |
| CCCCc1oc2ccccc2c1C(=O)c1cc(I)c(OCCN)c(I)c1 | µM | 72 |
